target.entity: TP73; also: reference of the scale not given here
method.summary: pooled miR-30 sensor sort-seq; sequence = guide strand
study.conditions: shRNA
endpoint: sensor-assay potency score (higher = more potent)
Respond with the number and no other words.

Value lookup for sensor-assay potency score (higher = more potent); key = `TGTAGCTGCCGAACTGTGCGGG`
-0.215

Recorded sensor-assay potency score (higher = more potent) of `TTGTAAACAGGCATGGCCCGGA` , please.
0.143

Would you kindly share the measured sensor-assay potency score (higher = more potent) for `TTTCACGACGTCGGTCACGTGC` ?
-1.03

Requested field: sensor-assay potency score (higher = more potent). Item: `TTGGGTGTAGCTGCCGAACTGT`
-0.212

FYI, the data here is from the OligoGym collection.
